The reported numbers originate from ChEMBL document CHEMBL4011594.

Test description: Aqueous solubility of the compound at pH 2
Assay type: physicochemical
Parameter measured: solubility (µM)

Compound: CN(CCN1C(=O)c2c3c(c(O)c(=O)n2C12CCC1CC12)C(=O)N(Cc1ccc(F)c(Cl)c1)CC3)S(C)(=O)=O (stereo not drawn)
solubility / µM: 33

[1] COCCN1C(=O)c2c3c(c(O)c(=O)n2C12CCC1CC12)C(=O)N(Cc1ccc(F)c(Cl)c1)CC3 (stereo not drawn)
[2] O=C1NC(C2CCCC2)n2c1c1c(c(O)c2=O)C(=O)N(Cc2ccc(F)c(Cl)c2)CC1 (racemic)
[3] COc1ccnc2c1C1(CC2)NC(=O)c2c3c(c(O)c(=O)n21)C(=O)N(Cc1ccc(F)c(Cl)c1)CC3 (racemic)
INPUT: Please put the entries in order of rising solubility. Form entry: labels listed in requested order.
OUTPUT: 1, 2, 3
(1: 54 µM, 2: 116 µM, 3: 190 µM)

[P] O=C1c2c(c3n(c(=O)c2O)C2(CCC4CC42)N(CC2CCOCC2)C3=O)CCN1Cc1ccc(F)c(Cl)c1 (racemic)
[Q] O=C1c2c(c3n(c(=O)c2O)C2(CCC4CC42)N(CCO)C3=O)CCN1Cc1ccc(F)c(Cl)c1 (stereo not drawn)
INPUT: Looking only at measured solubility, which entry is lower, P or Q ? Answer by quoting the chosen item's label.
OUTPUT: P

[1] CO[C@H](C)CN1C(=O)c2c3c(c(O)c(=O)n2C12CCC1CC12)C(=O)N(Cc1ccc(F)c(Cl)c1)CC3 (stereo partly drawn)
[2] CCC(O)CN1C(=O)c2c3c(c(O)c(=O)n2C12CCC1CC12)C(=O)N(Cc1ccc(F)c(Cl)c1)CC3 (stereo not drawn)
INPUT: For 1 and 2 , which recorded solubility is lower? # answer = label of selected item
OUTPUT: 1
(1: 46 µM, 2: 69 µM)

[P] O=C1NC(C2CCC2)n2c1c1c(c(O)c2=O)C(=O)N(Cc2ccc(F)c(Cl)c2)CC1 (racemic)
[Q] CO[C@@H](C)CN1C(=O)c2c3c(c(O)c(=O)n2C12CCC1CC12)C(=O)N(Cc1ccc(F)c(Cl)c1)CC3 (stereo partly drawn)
[R] C[C@@H](O)CN1C(=O)c2c3c(c(O)c(=O)n2[C@@]12CC[C@H]1C[C@H]12)C(=O)N(Cc1ccc(F)c(Cl)c1)CC3
[S] CN1CCN(CCN2C(=O)c3c4c(c(O)c(=O)n3C23CCC2CC23)C(=O)N(Cc2ccc(F)c(Cl)c2)CC4)S1(=O)=O (stereo not drawn)
INPUT: Which order do these items take when sorted by rising solubility? List them. Put the labels in the requested order and write them down.
OUTPUT: Q, S, P, R
(Q: 12 µM, S: 18 µM, P: 40 µM, R: 190 µM)
